Molecular target: T1, TNFR1 (Homo sapiens, UniProt P19438)
T1 chain: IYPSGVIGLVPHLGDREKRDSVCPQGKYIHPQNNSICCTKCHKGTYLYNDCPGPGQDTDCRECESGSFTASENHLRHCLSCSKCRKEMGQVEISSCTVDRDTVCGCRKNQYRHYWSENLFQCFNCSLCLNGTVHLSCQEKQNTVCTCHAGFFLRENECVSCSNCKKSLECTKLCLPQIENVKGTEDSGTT
Experiment: yeast display SC50
measurement_kind: apparent Kd (screen) (nM)

L27Y (designed binder) MTLQELLREEALRRAEAEAFRYALELYAEKFPEQKEYLLDLAEEIESQIRSLSGVDVEDVRKFLDKEWAWVKELLAEHPAELAEVEAARAARLAELRAEVEAKVAA = 0.539
K62S (designed binder) MTLQELLREEALRRAEAEAFRYALELLAEKFPEQKEYLLDLAEEIESQIRSLSGVDVEDVRSFLDKEWAWVKELLAEHPAELAEVEAARAARLAELRAEVEAKVAA = 0.539
D65N (designed binder) MTLQELLREEALRRAEAEAFRYALELLAEKFPEQKEYLLDLAEEIESQIRSLSGVDVEDVRKFLNKEWAWVKELLAEHPAELAEVEAARAARLAELRAEVEAKVAA = 0.49
D40E (designed binder) MTLQELLREEALRRAEAEAFRYALELLAEKFPEQKEYLLELAEEIESQIRSLSGVDVEDVRKFLDKEWAWVKELLAEHPAELAEVEAARAARLAELRAEVEAKVAA = 0.593
